Exercise: for every item that follows, state its recorded inhibition of aggregation.
- method: reduction of polyQ htt aggregates in cells – imaging, exon1htt(103Q)mCFP cells, high-content imaging, primary screen (AID 483);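 further: compound exposure lasted 3 days before fixation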
- run_conditions: exon1htt(103Q)mCFP cell line, aggregate imaging, at 2 µM; stronger effect = higher value
# value in %; strip the unit string

Req: Name the recorded inhibition of aggregation of the item `O=C(NCCCCNC(=O)c1cccnc1)c1cccnc1` in your answer.
Resp: 8.2

Req: Identify measured inhibition of aggregation associated with `COc1ccc(CCn2c(-c3ccco3)nc3nc4ccccc4nc32)cc1`
Resp: -7.3

Req: # return recorded inhibition of aggregation for input O=S(NCc1ccco1)C12CC3CC(CC(C3)C1)C2 (stereo not given)
Resp: 1.2

Req: Determine from records and report inhibition of aggregation for `COc1ccc(-c2cc(C(F)(F)F)nc(N3CCN(c4ccc(F)cc4)CC3)n2)cc1OC`
Resp: -2.4

Req: Please give measured inhibition of aggregation of the following entry: `Cc1nc2c(-c3ccccc3)c(C)nn2c(C)c1CCC(=O)O`
Resp: 8.1
